Values were extracted from paper doi:10.1101/2025.08.03.668247.

Target: T1, GST-Egl512-819 (Drosophila melanogaster, UniProt Q9W1K4 512-819)
T1 sequence: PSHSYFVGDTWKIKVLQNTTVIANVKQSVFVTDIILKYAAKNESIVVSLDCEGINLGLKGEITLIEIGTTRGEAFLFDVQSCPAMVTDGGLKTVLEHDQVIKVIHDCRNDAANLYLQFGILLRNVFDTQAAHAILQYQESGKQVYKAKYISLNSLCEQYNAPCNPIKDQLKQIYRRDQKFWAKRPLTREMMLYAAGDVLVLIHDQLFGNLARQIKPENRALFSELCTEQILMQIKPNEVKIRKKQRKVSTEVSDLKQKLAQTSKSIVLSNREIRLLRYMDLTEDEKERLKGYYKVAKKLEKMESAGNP
Assay: competition; vs FAM-K10 TLS; FA: 20 mM HEPES-NaOH pH 7.5, 100 mM NaCl, 10% glycerol, 20 C, 10 nM FAM-RNA; competition: 150 nM Egl512-819 + 10 nM FAM-K10 TLS, same buffer
Conditions: protein: recombinant; tags: N-terminal GST (TEV site); hairpin
pIC50: −log10 of the molar value.

BINDER: ACAUGAGGAUUACCCAUGU (structured_RNA) [MS2 stem loop]
pIC50: 6.85
--
BINDER: CUUGAUUGUACUUUUUAAAUUAAUUCUUAAAAAUACAAAUUAAG (structured_RNA) [K10-b1as]
pIC50: 7.20
--
BINDER: AUUGAUUGUACUUUUUAAAUUAAUUCUUAAAAAUACAAAUUAAU (structured_RNA) [K10-b1as-AU]
pIC50: 7.06
--
BINDER: AUUGAUUGUAUUUUUAAAUUAAUUCUUAAAAACUACAAAUUAAU (structured_RNA) [K10-AU]
pIC50: 7.17
